This listing pairs compounds with measured CC50.
assay: Cytotoxicity against MDCK cells measured after 24 to 120 hrs by MTT assay; assay type: toxicity, cell-based, Canis lupus familiaris; details: dog
QUANTITY MEASURED: CC50

[[record]]
compound = "COc1ccc(C(=O)Nc2nc3n(n2)C(c2ccccc2)C=C(C)N3)cc1 (stereo not given)"
quantity_measured = "CC50"
observed_result = "> 250 µM"

[[record]]
compound = "NC(=O)c1c(NC(=O)c2cnn3c(C(F)F)cc(-c4ccccc4)nc23)sc2c1CCC2"
quantity_measured = "CC50"
observed_result = "> 1000 µM"

[[record]]
compound = "COC(=O)C1=C(N)N(c2cccc(Cl)c2C)C2=C(C(=O)CCC2)C1c1ccc2c(c1)OCO2 (stereo not given)"
quantity_measured = "CC50"
observed_result = "> 1000 µM"

[[record]]
compound = "COc1ccc(CC2(CCC(=O)NC(C)Cn3ccc4ccccc43)CCC(=O)N2)cc1 (stereo not given)"
quantity_measured = "CC50"
observed_result = "> 250 µM"

[[record]]
compound = "Nc1ccc(O)c2c1C(=O)c1c(N)ccc(O)c1C2=O"
quantity_measured = "CC50"
observed_result = "> 250 µM"


The measured values listed here are drawn from ChEMBL document CHEMBL3853272.
